- experimental-target: T1, P6-AA-1HAA-Y
- T1 chain: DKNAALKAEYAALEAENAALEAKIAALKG
- assay-remarks: two-hybrid library CCmax;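 further: natural log of median RNA to DNA barcode read ratio; higher means stronger binding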
- study-conditions: mean of both orientations
quantity-name: interaction score
Just the number, please.

>>> value_measured("DENAALEAKAAALKAKNAALKAEIAALEG [P5-AA-1HAA-A]")
0.845
>>> value_measured("DENAALEAKYAALKAKNAALKAEIAALEG [P5-AA-1HAA-Y]")
1.34
>>> value_measured("DENAALEAKSAALKAKNAALKAEIAALEG [P5-AA-1HAA-S]")
0.832
>>> value_measured("DENAALEAKVAALKAKNAALKAEIAALEG [P5-AA-1HAA-V]")
2.48
>>> value_measured("DENAALEAKEAALKAKNAALKAEIAALEG [P5-AA-1HAA-E]")
-0.801
>>> value_measured("DENAALEAKLAALKAKNAALKAEIAALEG [P5-AA-1HAA-L]")
1.93
>>> value_measured("DENAALEAKRAALKAKNAALKAEIAALEG [P5-AA-1HAA-R]")
0.0514
>>> value_measured("DENAALEAKTAALKAKNAALKAEIAALEG [P5-AA-1HAA-T]")
1.19
>>> value_measured("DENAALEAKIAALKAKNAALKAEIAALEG [4H1401-AA]")
2.37
>>> value_measured("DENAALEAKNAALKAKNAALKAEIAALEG [P5-AA-1HAA-N]")
1.5

Enquiry: Please look up its interaction score: DENAALEAKKAALKAKNAALKAEIAALEG [P5-AA-1HAA-K]
Return: 0.0221

Enquiry: Please look up its interaction score: DENAALEAKHAALKAKNAALKAEIAALEG [P5-AA-1HAA-H]
Return: 0.439
